assay: Stability in simulated gastric acid assessed as compound remaining at pH 1.2 incubated for 1.5 hrs; format: ADME; conditions: read-out: Stability
For each entry below, report its remaining at 1.5 h value.
Numbers only, in %.

For each entry beneath this line, provide reported remaining at 1.5 h.
1. CC(=O)NC[C@H]1CN(c2ccc(-c3ccc(/C=N/N4CCN(C)CC4)nc3)c(F)c2)C(=O)O1
2. CC(=O)NC[C@H]1CN(c2ccc(-c3ccc(/C=N/N4CCSCC4)c(O)c3)c(F)c2)C(=O)O1
3. CC(=O)NC[C@H]1CN(c2ccc(-c3ccc(/C=N/N4CCS(=O)(=O)CC4)nc3)c(F)c2)C(=O)O1
4. CC(=O)NC[C@H]1CN(c2ccc(-c3ccc(/C=N/N4CCN(C)CC4)c(O)c3)c(F)c2)C(=O)O1
5. CC(=O)NC[C@H]1CN(c2ccc(-c3ccc(/C=N/N4CCSCC4)nc3)c(F)c2)C(=O)O1

Return:
96.2
82.9
99.2
12.2
98.6

====

tested on: Staphylococcus aureus; assay: Antibacterial activity against Staphylococcus aureus ATCC 29213 assessed as complete reduction in bacterial cell growth by CLSI protocol based broth liquid microdilution method; assay type: functional
For each entry below, report its MIC value.
Answers are plain numbers, in µg/mL.

Past entries and their recorded results:
# test_smiles, unit_annotation, MIC
measured = [
    ("CC(=O)NC[C@H]1CN(c2ccc(-c3ccc(/C=N/N4CCN(C)CC4)cn3)c(F)c2)C(=O)O1", "µg/mL", 2),
    ("CC(=O)NC[C@H]1CN(c2ccc(-c3ccc(/C=N/N4CCNCC4)c(O)c3)c(F)c2)C(=O)O1", "µg/mL", 0.5),
]

For each entry beneath this line, provide reported MIC.
1. COC(=O)N1CCN(/N=C/c2ccc(-c3ccc(N4C[C@H](CNC(C)=O)OC4=O)cc3F)cn2)CC1
2. CCC(=O)N1CCN(/N=C/c2ccc(-c3ccc(N4C[C@H](CNC(C)=O)OC4=O)cc3F)cc2O)CC1

Return:
1
0.25

====

assay: Stability in simulated gastric acid assessed as compound remaining at pH 1.2 incubated for 0.5 hrs; format: ADME; settings: read-out: Stability
assay_metric: remaining at 0.5 h (%)
One number for each entry, in %.

Past entries and their recorded results:
# test_smiles, remaining at 0.5 h, %
measured = [
    ("CC(=O)NC[C@H]1CN(c2ccc(-c3ccc(/C=N/N4CCS(=O)(=O)CC4)nc3)c(F)c2)C(=O)O1", 99.7),
    ("CC(=O)NC[C@H]1CN(c2ccc(-c3ccc(/C=N/N4CCN(C)CC4)nc3)c(F)c2)C(=O)O1", 98.3),
    ("CC(=O)NC[C@H]1CN(c2ccc(-c3ccc(/C=N/N4CCSCC4)nc3)c(F)c2)C(=O)O1", 99.4),
    ("CC(=O)NC[C@H]1CN(c2ccc(-c3ccc(/C=N/N4CCSCC4)c(O)c3)c(F)c2)C(=O)O1", 96),
]

Enquiry: # return recorded remaining at 0.5 h for input `CC(=O)NC[C@H]1CN(c2ccc(-c3ccc(/C=N/N4CCN(C)CC4)c(O)c3)c(F)c2)C(=O)O1`
Return: 69.8

====

assay: Stability in simulated gastric acid assessed as compound remaining at pH 1.2 incubated for 1 hr; type: ADME; conditions: read-out: Stability
Doc: threshold 90% (exclusive). Items with remaining at 1 h beneath it return Fulfilled; others return Not fulfilled.

Field: example entries. Status: answers known.
# test_smiles, cat
data = [
    ("CC(=O)NC[C@H]1CN(c2ccc(-c3ccc(/C=N/N4CCN(C)CC4)nc3)c(F)c2)C(=O)O1", "Not fulfilled"),
    ("CC(=O)NC[C@H]1CN(c2ccc(-c3ccc(/C=N/N4CCN(C)CC4)c(O)c3)c(F)c2)C(=O)O1", "Fulfilled"),
    ("CC(=O)NC[C@H]1CN(c2ccc(-c3ccc(/C=N/N4CCSCC4)c(O)c3)c(F)c2)C(=O)O1", "Not fulfilled"),
    ("CC(=O)NC[C@H]1CN(c2ccc(-c3ccc(/C=N/N4CCSCC4)nc3)c(F)c2)C(=O)O1", "Not fulfilled"),
]

Enquiry: Could you please tell me whether remaining at 1 h recorded for `CC(=O)NC[C@H]1CN(c2ccc(-c3ccc(/C=N/N4CCS(=O)(=O)CC4)nc3)c(F)c2)C(=O)O1` is less than 90%?
Return: Not fulfilled
